assay: Solubility (18 hr vortex mixing at room temperature, filtration, HPLC); format: physicochemical; details: 20 °C, aqueous with cosolvent or surfactant or cyclodextrin, thermodynamic from solid; 10% CrEL/50 mM cit; room temperature
MEASURE: solubility at 18 h (µg/mL)
All answers are understood in µg/mL, so give the number only.

What value of measured solubility at 18 h is listed for `O=C(Cc1cccc(OC(F)(F)F)c1)Nc1ccc(CCCCc2nnc(NC(=O)Cc3ccccc3)s2)nn1` ?
228

What value of measured solubility at 18 h is listed for O=C(Cc1cccc(OC(F)(F)F)c1)Nc1ccc(CCCCc2nnc(NC(=O)C(O)c3cccc(Cl)c3)s2)nn1 (centres unmarked) ?
732

What value of measured solubility at 18 h is listed for `CCCC(=O)OCN(C(=O)Cc1ccccc1)c1nnc(CCCCc2ccc(NC(=O)Cc3ccccc3)nn2)s1` ?
157

What value of measured solubility at 18 h is listed for `O=C(Cc1cccc(OC(F)(F)F)c1)Nc1ccc(CCCCc2nnc(NC(=O)[C@@H](O)c3ccccc3)s2)nn1` ?
309

What value of measured solubility at 18 h is listed for `O=C(Cc1ccccc1)Nc1ccc(CCCCc2nnc(NC(=O)Cc3ccccc3)s2)nn1` ?
55
